Items are presented alongside their recorded Activity.
assay.system: Hexokinase-2 (Mus musculus) (UniProt O08528)
Sequence (O08528 whole entry): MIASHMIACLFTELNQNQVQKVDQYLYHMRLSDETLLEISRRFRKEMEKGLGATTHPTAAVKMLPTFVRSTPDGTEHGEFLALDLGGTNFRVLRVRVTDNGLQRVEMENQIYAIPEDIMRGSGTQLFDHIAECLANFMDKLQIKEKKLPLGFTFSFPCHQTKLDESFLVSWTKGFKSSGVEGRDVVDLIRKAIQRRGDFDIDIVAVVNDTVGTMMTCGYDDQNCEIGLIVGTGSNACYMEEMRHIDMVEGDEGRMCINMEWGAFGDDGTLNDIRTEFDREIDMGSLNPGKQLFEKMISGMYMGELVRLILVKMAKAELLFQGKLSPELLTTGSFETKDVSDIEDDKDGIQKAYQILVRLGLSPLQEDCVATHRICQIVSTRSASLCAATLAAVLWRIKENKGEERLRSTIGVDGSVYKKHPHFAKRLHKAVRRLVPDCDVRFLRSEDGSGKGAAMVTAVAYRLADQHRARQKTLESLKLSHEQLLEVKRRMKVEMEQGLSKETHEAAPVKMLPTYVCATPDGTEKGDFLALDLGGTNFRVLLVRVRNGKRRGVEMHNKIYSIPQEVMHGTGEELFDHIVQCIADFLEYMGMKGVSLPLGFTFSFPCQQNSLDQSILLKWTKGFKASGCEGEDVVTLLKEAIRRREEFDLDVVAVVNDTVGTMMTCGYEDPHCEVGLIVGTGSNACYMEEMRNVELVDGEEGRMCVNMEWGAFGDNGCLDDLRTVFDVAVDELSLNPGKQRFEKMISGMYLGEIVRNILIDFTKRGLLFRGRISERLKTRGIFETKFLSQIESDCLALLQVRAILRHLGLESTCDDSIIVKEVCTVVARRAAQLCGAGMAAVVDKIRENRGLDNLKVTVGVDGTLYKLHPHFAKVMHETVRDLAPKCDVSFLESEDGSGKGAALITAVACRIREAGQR
experiment.summary: Induction of HK2 degradation in mouse 4T1 cells at 20 uM measured for 36 hrs by Western blot analysis relative to control
Format: cell-based
assay.metric: Activity (%)

INSERT INTO assay_data (compound, recorded_measurement) VALUES
  ('O=C(COc1cccc2c1C(=O)N(C1CCC(=O)NC1=O)C2=O)NCCCCCCCCNC(=O)c1nn(Cc2ccc(Cl)cc2Cl)c2ccccc12 (stereo not given)', 11.7),
  ('O=C(COc1cccc2c1C(=O)N(C1CCC(=O)NC1=O)C2=O)NCCCCCCNC(=O)c1nn(Cc2ccc(Cl)cc2Cl)c2ccccc12 (stereo not given)', 12.2),
  ('O=C1CCC(N2C(=O)c3cccc(NCCCNC(=O)c4nn(Cc5ccc(Cl)cc5Cl)c5ccccc45)c3C2=O)C(=O)N1 (stereo not given)', 10.8),
  ('O=C1CCC(N2C(=O)c3cccc(NCCOCCOC(=O)c4nn(Cc5ccc(Cl)cc5Cl)c5ccccc45)c3C2=O)C(=O)N1 (stereo not given)', 46.1),
  ('O=C1CCC(N2C(=O)c3cccc(NCCOCCOCCOC(=O)c4nn(Cc5ccc(Cl)cc5Cl)c5ccccc45)c3C2=O)C(=O)N1 (stereo not given)', 13.8),
  ('O=C(COc1cccc2c1C(=O)N(C1CCC(=O)NC1=O)C2=O)NCCOCCOCCNC(=O)c1nn(Cc2ccc(Cl)cc2Cl)c2ccccc12 (stereo not given)', 13.2),
  ('O=C(COc1cccc2c1C(=O)N(C1CCC(=O)NC1=O)C2=O)NCCCNC(=O)c1nn(Cc2ccc(Cl)cc2Cl)c2ccccc12 (stereo not given)', 35.5),
  ('CC(CCOC(=O)c1nn(Cc2ccc(Cl)cc2Cl)c2ccccc12)Nc1cccc2c1C(=O)N(C1CCC(=O)NC1=O)C2=O (stereo not given)', 16.6),
  ('O=C1CCC(N2C(=O)c3cccc(NCCOCCOCCNC(=O)c4nn(Cc5ccc(Cl)cc5Cl)c5ccccc45)c3C2=O)C(=O)N1 (stereo not given)', 30.6),
  ('O=C1CCC(N2C(=O)c3cccc(OCCCNC(=O)c4nn(Cc5ccc(Cl)cc5Cl)c5ccccc45)c3C2=O)C(=O)N1 (stereo not given)', 1.94),
  ('O=C1CCC(N2C(=O)c3cccc(OCCNC(=O)c4nn(Cc5ccc(Cl)cc5Cl)c5ccccc45)c3C2=O)C(=O)N1 (stereo not given)', 15.6),
  ('O=C1CCC(N2C(=O)c3cccc(NCCNC(=O)c4nn(Cc5ccc(Cl)cc5Cl)c5ccccc45)c3C2=O)C(=O)N1 (stereo not given)', 43.4),
  ('O=C(O)c1nn(Cc2ccc(Cl)cc2Cl)c2ccccc12 [LONIDAMINE]', 3.49),
  ('O=C1CCC(N2C(=O)c3cccc(NCCOCCOCCOCCOC(=O)c4nn(Cc5ccc(Cl)cc5Cl)c5ccccc45)c3C2=O)C(=O)N1 (stereo not given)', 27.5),
  ('O=C1CCC(N2C(=O)c3cccc(NCCCCCCCCNC(=O)c4nn(Cc5ccc(Cl)cc5Cl)c5ccccc45)c3C2=O)C(=O)N1 (stereo not given)', 3.71);

----------
Reported Activity values follow for various compounds
assay.system: UniProt:O08528
experiment.summary: Induction of HK2 degradation in mouse 4T1 cells at 20 uM measured for 36 hrs by Western blot analysis relative to control
Format: cell-based
assay.metric: Activity (%)

INSERT INTO results (compound, assay_system, recorded_measurement) VALUES
  ('O=C(COc1cccc2c1C(=O)N(C1CCC(=O)NC1=O)C2=O)NCCNC(=O)c1nn(Cc2ccc(Cl)cc2Cl)c2ccccc12 (stereo not given)', 'UniProt:O08528', 21.5),
  ('O=C1CCC(N2C(=O)c3cccc(NCCCCCCNC(=O)c4nn(Cc5ccc(Cl)cc5Cl)c5ccccc45)c3C2=O)C(=O)N1 (stereo not given)', 'UniProt:O08528', 18.2),
  ('O=C1CCC(N2C(=O)c3cccc(NCCCCNC(=O)c4nn(Cc5ccc(Cl)cc5Cl)c5ccccc45)c3C2=O)C(=O)N1 (stereo not given)', 'UniProt:O08528', 71.1),
  ('O=C1CCC(N2C(=O)c3cccc(NCCCCOC(=O)c4nn(Cc5ccc(Cl)cc5Cl)c5ccccc45)c3C2=O)C(=O)N1 (stereo not given)', 'UniProt:O08528', 22.9),
  ('O=C1CCC(N2C(=O)c3cccc(NCCCOC(=O)c4nn(Cc5ccc(Cl)cc5Cl)c5ccccc45)c3C2=O)C(=O)N1 (stereo not given)', 'UniProt:O08528', 13.6);
